- Tested system: Potassium voltage-gated channel subfamily H member 2 (hERG), Homo sapiens
- Procedure details: Inhibition of human ERG
Assay metric: pIC50
// scale note: pIC50 = -log10(conc_M); give the bare number

pIC50 measured on `O=C(Nc1ccccc1Cl)N1CCN(c2nc(-c3ccc4ccccc4n3)no2)CC1` = 4.92

###

- Tested system: Cytochrome P450 2D6 (Homo sapiens)
- Sequence (P10635 whole entry): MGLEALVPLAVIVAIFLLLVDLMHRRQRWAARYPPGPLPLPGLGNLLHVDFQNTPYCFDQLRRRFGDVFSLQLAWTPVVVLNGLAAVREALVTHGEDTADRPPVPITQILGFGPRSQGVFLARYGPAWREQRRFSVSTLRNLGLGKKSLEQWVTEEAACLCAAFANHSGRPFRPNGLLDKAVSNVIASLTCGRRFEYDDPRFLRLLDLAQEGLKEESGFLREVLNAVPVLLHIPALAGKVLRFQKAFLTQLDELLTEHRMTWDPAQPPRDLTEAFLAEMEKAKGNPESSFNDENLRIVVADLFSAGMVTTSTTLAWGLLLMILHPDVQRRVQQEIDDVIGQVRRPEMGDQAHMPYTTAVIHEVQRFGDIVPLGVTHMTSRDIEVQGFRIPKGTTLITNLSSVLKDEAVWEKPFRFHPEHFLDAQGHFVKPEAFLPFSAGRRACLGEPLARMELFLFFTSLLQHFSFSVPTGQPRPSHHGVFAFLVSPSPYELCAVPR
Assay metric: IC50

Observed IC50 on Cytochrome P450 2D6 (Homo sapiens), entry `O=C(Nc1ccccc1Cl)N1CCN(c2nc(-c3ccc4ccccc4n3)no2)CC1` , equals > 25 µM

###

- Procedure details: Clearance in dog
- Format: ADME, organism-based, Canis lupus familiaris
- Conditions used: in vivo
Assay metric: clearance

Smiles string | Result
O=C(NC1CCC(F)(F)CC1)N1CCN(c2nc(-c3ccc4ccccc4n3)no2)CC1 | 20 mL/min/kg

clearance measured on `O=C(NC1CCCCC1)N1CCN(c2nc(-c3ccc4ccccc4n3)no2)CC1` = 16 mL/min/kg
